// provenance: patent US7906501B2

Assignment: determine reported ED15 (0-120 min) for the given compounds.
System: spontaneously hypertensive rat (SHR)
test: Reduction in systolic arterial pressure in the SHR rat after I.P. administration
Type: in vivo
cond: sodium salts, doses 5-20 mg/kg, dose giving 15% reduction in average basal systolic pressure, NC = not calculable, effect < 10% at all doses

Recorded results for 3 compounds are shown here.
{"compound": "CCCCc1nc(Cl)c(CO)n1Cc1ccc(-c2ccccc2-c2nn[nH]n2)cc1 [Losartan, losartan]", "ED15 (0-120 min)": "25.4 mg/kg"}
{"compound": "CCCCc1cc(CC(C)C)c(C=O)n1Cc1ccc(-c2ccccc2-c2nnn[nH]2)cc1 [Compound 1]", "ED15 (0-120 min)": "17.4 mg/kg"}
{"compound": "CCCCc1cc(C(C)C)c(C=O)n1Cc1ccc(-c2ccccc2-c2nnn[nH]2)cc1 [Compound 6]", "ED15 (0-120 min)": "19.3 mg/kg"}

# query: ED15 (0-120 min) of entry CCCCC(=O)N(Cc1ccc(-c2ccccc2-c2nnn[nH]2)cc1)[C@H](C(=O)O)C(C)C [Valsartan, valsartan, reference compound]
26.2 mg/kg

* * *

measured_on: AT1 receptor (Rattus norvegicus, UniProt P25095)
Construct: from tissue; host or cells: rat liver membranes
Sequence (P25095 whole entry): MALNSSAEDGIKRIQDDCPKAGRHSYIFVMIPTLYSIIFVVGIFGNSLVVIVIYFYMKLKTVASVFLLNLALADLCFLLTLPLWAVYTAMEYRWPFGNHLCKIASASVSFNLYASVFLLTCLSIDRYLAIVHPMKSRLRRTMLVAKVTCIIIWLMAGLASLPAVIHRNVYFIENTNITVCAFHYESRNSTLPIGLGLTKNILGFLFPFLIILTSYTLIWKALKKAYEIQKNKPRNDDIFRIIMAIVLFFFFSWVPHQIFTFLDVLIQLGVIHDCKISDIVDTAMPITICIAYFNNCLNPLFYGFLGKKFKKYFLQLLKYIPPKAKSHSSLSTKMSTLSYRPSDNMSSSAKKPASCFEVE
test: Inhibition of [125I]Sar1,Ile8-angiotensin II binding in rat liver membranes
cond: rat liver membranes, AT1 binding
Protocol: Antagonist activity at the AT1 receptor on the part of compounds provided by the invention was assessed as the capacity to inhibit binding of the specific AII agonist to rat liver membranes. The method described by R. S. L. Chang et al., [JPET (1992), 262, 133-38] and M. J. Robertson et al., [Br. J. Pharmacol. (1992), 107, 1173-1180] was used with slight modifications. […]
experimental_readout: pIC50
Answers are plain numbers, as −log10 of the molar value.

# query: pIC50 of entry CCCCc1cc(CC(C)C)c(C=O)n1Cc1ccc(-c2ccccc2-c2nnn[nH]2)cc1
8.05

* * *

Assignment: determine reported IC50 for the given molecules.
measured_on: AT1 receptor (Rattus norvegicus, UniProt P25095)
Construct: from tissue; host or cells: rat liver membranes
test: Inhibition of [125I]Sar1,Ile8-angiotensin II binding in rat liver membranes
cond: displacement of 25 pM [125I]-Sar1,Ile8-angiotensin II, rat liver membranes, 180 min at 25° C.
One number for each entry, in µM.

{"molecule": "CCCc1ccc(C(=O)O)n1Cc1ccc(-c2ccccc2-c2nnn[nH]2)cc1 [Compound 10]", "measured_on": "AT1 receptor (Rattus norvegicus, UniProt P25095)", "IC50 / µM": 0.475}
{"molecule": "CCCc1ccc(CO)n1Cc1ccc(-c2ccccc2-c2nnn[nH]2)cc1 [Compound 13]", "measured_on": "AT1 receptor (Rattus norvegicus, UniProt P25095)", "IC50 / µM": 0.444}
{"molecule": "CCCc1cc(C(C)C)c(C(=O)O)n1Cc1ccc(-c2ccccc2-c2nnn[nH]2)cc1 [Compound 11]", "measured_on": "AT1 receptor (Rattus norvegicus, UniProt P25095)", "IC50 / µM": 0.106}

Quick request: IC50 for each listed item, please.
1. CCCCc1ccc(C=O)n1Cc1ccc(-c2ccccc2-c2nnn[nH]2)cc1 [Compound 7]
2. CCCCC(=O)N(Cc1ccc(-c2ccccc2-c2nnn[nH]2)cc1)[C@H](C(=O)O)C(C)C [Valsartan, valsartan, reference compound]
3. Cc1ccc(C)n1Cc1ccc(-c2ccccc2-c2nnn[nH]2)cc1 [Compound 14]

1: 0.0665; 2: 0.0034; 3: 10.7

# query: IC50 of entry CCCCc1cc(C(C)C)c(C=O)n1Cc1ccc(-c2ccccc2-c2nnn[nH]2)cc1 [Compound 6]
0.0153

* * *

experimental_readout: melting point (°C)
One number for each entry, in °C.

{"compound": "CC(C)CCc1cc(C(C)C)c(C=O)n1Cc1ccc(-c2ccccc2-c2nnn[nH]2)cc1 [Compound 9]", "unit_of_measurement": "°C", "melting point": 144}
{"compound": "CCCc1cc(C(C)C)c(C=O)n1Cc1ccc(-c2ccccc2-c2nnn[nH]2)cc1 [Compound 5]", "unit_of_measurement": "°C", "melting point": 180}
{"compound": "CCCCc1ccc(C(=O)O)n1Cc1ccc(-c2ccccc2-c2nnn[nH]2)cc1 [Compound 12]", "unit_of_measurement": "°C", "melting point": 142}
{"compound": "CCCc1cc(C(C)C)c(C)n1Cc1ccc(-c2ccccc2-c2nnn[nH]2)cc1 [Compound 15]", "unit_of_measurement": "°C", "melting point": 160}
{"compound": "CCCc1ccc(C(=O)O)n1Cc1ccc(-c2ccccc2-c2nnn[nH]2)cc1 [Compound 10]", "unit_of_measurement": "°C", "melting point": 134}

Quick request: melting point for each listed item, please.
1. CCCc1c(Cl)cc(C=O)n1Cc1ccc(-c2ccccc2-c2nnn[nH]2)cc1 [Compound 4]
2. CCCCc1cc(CC(C)C)c(C=O)n1Cc1ccc(-c2ccccc2-c2nnn[nH]2)cc1 [Compound 1]

1: 150; 2: 148
